target-or-test-system: UniProt:P23687
Sequence (P23687 whole entry): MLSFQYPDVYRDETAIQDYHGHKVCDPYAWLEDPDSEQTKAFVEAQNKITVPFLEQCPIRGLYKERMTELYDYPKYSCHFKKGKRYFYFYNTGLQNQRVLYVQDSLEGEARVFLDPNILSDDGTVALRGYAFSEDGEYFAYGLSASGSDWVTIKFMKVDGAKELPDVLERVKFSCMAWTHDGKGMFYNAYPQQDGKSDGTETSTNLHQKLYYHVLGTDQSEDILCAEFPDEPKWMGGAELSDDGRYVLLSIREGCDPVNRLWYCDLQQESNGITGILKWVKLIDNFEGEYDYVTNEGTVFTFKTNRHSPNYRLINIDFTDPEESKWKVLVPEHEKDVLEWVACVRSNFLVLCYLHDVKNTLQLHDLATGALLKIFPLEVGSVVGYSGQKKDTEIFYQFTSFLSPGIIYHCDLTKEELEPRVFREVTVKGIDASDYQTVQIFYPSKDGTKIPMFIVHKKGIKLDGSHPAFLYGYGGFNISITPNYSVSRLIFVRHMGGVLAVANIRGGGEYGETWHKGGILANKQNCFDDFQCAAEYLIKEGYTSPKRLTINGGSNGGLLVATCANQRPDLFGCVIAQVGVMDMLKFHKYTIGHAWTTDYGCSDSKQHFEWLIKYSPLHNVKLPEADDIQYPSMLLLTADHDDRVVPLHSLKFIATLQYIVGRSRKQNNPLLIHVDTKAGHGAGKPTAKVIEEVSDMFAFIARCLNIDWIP
parameter: IC50 (µM)
Answers are plain numbers, in µM.

Task: Supply IC50 measured with UniProt:P23687 for CCC(NC(=O)[C@@H]1CCCN1C(=O)[C@@H](N)C(C)C)C(=O)C(=O)N[C@H](CC(C)C)C(=O)N[C@H](C(=O)O)C(C)C (stereo partly shown) .
Output: 0.556

* * *

target-or-test-system: cathepsin B (Homo sapiens, UniProt P07858)
pIC50: −log10 of the molar value.
parameter: pIC50

Task: Supply pIC50 measured with cathepsin B (Homo sapiens, UniProt P07858) for CCC(NC(=O)[C@@H]1CCCN1C(=O)[C@@H](N)C(C)C)C(=O)C(=O)N[C@H](CC(C)C)C(=O)N[C@H](C(=O)O)C(C)C (stereo partly shown) [Compound 6] .
Output: < 3.73
